I'd be grateful if you could share measured ΔTm for these entries.
System: Salmonidae
Assay Notes: Binding affinity to salmon sperm DNA assessed as change in melting temperature at 15 uM by thermal denaturation assay
Give the value, in units of °C, as a plain number.

Need ΔTm, item `N/C(=N\O)Nc1ccc(CCc2ccc(N/C(N)=N/O)cc2)cc1` 0

Need ΔTm, item `Cl.N/C(=N\O)Nc1ccc(Oc2ccc(N/C(N)=N/O)cc2)cc1` 1

Need ΔTm, item `Cl.N/C(=N\O)Nc1ccc(Cc2ccc(N/C(N)=N/O)cc2)cc1` 0

Need ΔTm, item `N/C(=N\O)Nc1ccc(NC(=O)c2ccc(N/C(N)=N/O)cc2)cc1` 1

Need ΔTm, item `Cl.N/C(=N\O)Nc1ccc(Sc2ccc(N/C(N)=N/O)cc2)cc1` 1

Need ΔTm, item `N/C(=N\O)Nc1ccc(C(=O)c2ccc(N/C(N)=N/O)cc2)cc1` 0

###

I'd be grateful if you could share measured pKa for these entries.
Assay Notes: Dissociation constant, pKa of the compound
Assay type: physicochemical
Structures can show the parent of a compound that is named as a salt.

Need pKa, item N=C(N)c1ccc(-c2ccc(-c3ccc(C(=N)N)cc3)o2)cc1 [FURAMIDINE HYDROCHLORIDE] 10.4

Need pKa, item `Cl.N/C(=N\O)Nc1ccc(Oc2ccc(N/C(N)=N/O)cc2)cc1` 8.3
